- Protocol: in vivo
- Test settings: brine shrimp, in vivo, other: larvae exposed in sea water in 96 well plate, LC50 against brine shrimp larvae; 96 well plates assay
Metric name: LC50 at 24 h (µg/mL)
API: value field is a number in µg/mL; no unit string.

So what does the record say about LC50 at 24 h for COc1ccc2ccc(=O)oc2c1/C=C/C(CO)COC(=O)CC(C)C (centres unmarked) [Compound 1] ?
6.8

----------
- Tested on: brine shrimp larvae
- Protocol: in vivo
- Test settings: 96 well plates assay
Reported LC50 against brine shrimp larvae values follow for various compounds

Quick check: LC50 against brine shrimp larvae on brine shrimp larvae, item C=C(C)C(CO)c1c(OC)ccc2ccc(=O)oc12 (stereo not shown) ?
< 500 µM

Quick check: LC50 against brine shrimp larvae on brine shrimp larvae, item C=C(C)C(O)C(OC)c1c(OC)ccc2ccc(=O)oc12 (stereo not shown) ?
< 500 µM

Quick check: LC50 against brine shrimp larvae on brine shrimp larvae, item `COc1ccc2ccc(=O)oc2c1/C=C/C(C)(C)O` ?
< 500 µM

Quick check: LC50 against brine shrimp larvae on brine shrimp larvae, item COc1ccc2ccc(=O)oc2c1/C=C/C(CO)COC(=O)CC(C)C (stereo not shown) ?
< 10 µM
